// provenance: patent US20260234242A1

experimental-target: T1, his-tagged human CDH6 extracellular region protein (hCDH6 ECD-his) (human, UniProt P55285 19-615)
T1 construct: also called Human CDH6-his; hCDH6-his; not shown: his tag
T1 sequence: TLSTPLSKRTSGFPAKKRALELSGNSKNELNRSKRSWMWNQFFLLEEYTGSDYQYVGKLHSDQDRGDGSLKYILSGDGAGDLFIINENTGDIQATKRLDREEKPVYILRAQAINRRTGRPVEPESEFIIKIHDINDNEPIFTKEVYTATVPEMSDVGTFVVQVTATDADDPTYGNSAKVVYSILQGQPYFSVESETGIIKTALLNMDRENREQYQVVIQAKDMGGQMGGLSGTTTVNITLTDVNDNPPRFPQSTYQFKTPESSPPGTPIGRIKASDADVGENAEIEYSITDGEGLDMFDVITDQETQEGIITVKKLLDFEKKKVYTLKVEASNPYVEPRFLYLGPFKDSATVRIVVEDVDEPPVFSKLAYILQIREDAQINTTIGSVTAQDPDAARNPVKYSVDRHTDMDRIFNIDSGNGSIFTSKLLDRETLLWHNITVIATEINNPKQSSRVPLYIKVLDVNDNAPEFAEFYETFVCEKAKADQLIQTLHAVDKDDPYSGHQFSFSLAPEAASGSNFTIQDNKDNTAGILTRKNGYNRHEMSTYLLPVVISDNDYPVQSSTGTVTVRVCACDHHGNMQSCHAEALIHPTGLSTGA
test: ELISA, coated antigen
Known EC50 of a selection of binders
Number first, unit second: that is the form wanted.

Name the recorded EC50 of the item hCDH6-1-H4L3 (antibody, V domains shown, Humanized) VH: EVQLVQSGAEVKKPGSSVKVSCKASGYTFTNYWMHWVRQRPGQGLEWMGDIDPSHSETHYTQKFKDRVTITVDKSTSTAYMELSSLRSEDTAVYYCARGDLGRFDYWGQGTTVTVSS VL: DIQMTQSPSSLSASVGDRVTITCRASESVSIHGTHLMHWYQQKPGKPPKLLIYAASNLESGVPSRFSGSGSETDFTFTISSLQPEDIATYYCQQSFEDPWTFGGGTKVEIK in your answer.
0.029 nM

Provide EC50 value for the following binder: hCDH6-1-H4L2 (antibody, V domains shown, Humanized) VH: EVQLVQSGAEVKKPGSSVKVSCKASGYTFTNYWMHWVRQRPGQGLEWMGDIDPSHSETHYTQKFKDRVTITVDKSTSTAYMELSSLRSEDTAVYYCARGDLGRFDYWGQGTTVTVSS VL: DIVMTQSPDSLAVSLGERATINCRASESVSIHGTHLMHWYQQKSGQPPKLLIYAASNLESGVPDRFSGSGSETDFTLTISSLQAEDVAVYYCQQSFEDPWTFGGGTKVEIK
0.026 nM

Read the entry hCDH6-14-H5L1 (antibody, V domains shown, Humanized) VH: EVQLQQSGAEVKKPGASVKVSCKASGYTFTDNYINWVRQAPGQRLEWMGWIYPGTGNSYYNEKFKGRVTITVDTSASTAYMELSSLRSEDTAVYYCASSYGDSFDYWGQGTTVTVSS VL: DIQMTQSPSSLSASVGDRVTITCRASQDIRNYLNWYQQKPGKAFKLLISYTSRLHSGVPSRFSGSGSGTDFTFTISSLQPEDIATYYCQQYSQLPWTFGGGTKVEIK and write its reported EC50.
0.079 nM

Moving on to another binder below.
Report EC50, nothing else, for this binder: hCDH6-14-H6L1 (antibody, V domains shown, Humanized) VH: EVQLVQSGAEVKKPGASVKVSCKASGYTFTDNYINWVRQAPGQRLEWMGWIYPGTGNSYYNEKFKGRVTITVDTSASTAYMELSSLRSEDTAVYLCASSYGDSFDYWGQGTTVTVSS VL: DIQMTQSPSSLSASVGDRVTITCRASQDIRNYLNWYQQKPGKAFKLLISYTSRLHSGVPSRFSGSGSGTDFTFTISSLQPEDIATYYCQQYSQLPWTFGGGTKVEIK
0.067 nM
